Recorded values, source ChEMBL document CHEMBL1146382.

Target: Beta-secretase 1 (Homo sapiens) (UniProt P56817)
Sequence (P56817 whole entry): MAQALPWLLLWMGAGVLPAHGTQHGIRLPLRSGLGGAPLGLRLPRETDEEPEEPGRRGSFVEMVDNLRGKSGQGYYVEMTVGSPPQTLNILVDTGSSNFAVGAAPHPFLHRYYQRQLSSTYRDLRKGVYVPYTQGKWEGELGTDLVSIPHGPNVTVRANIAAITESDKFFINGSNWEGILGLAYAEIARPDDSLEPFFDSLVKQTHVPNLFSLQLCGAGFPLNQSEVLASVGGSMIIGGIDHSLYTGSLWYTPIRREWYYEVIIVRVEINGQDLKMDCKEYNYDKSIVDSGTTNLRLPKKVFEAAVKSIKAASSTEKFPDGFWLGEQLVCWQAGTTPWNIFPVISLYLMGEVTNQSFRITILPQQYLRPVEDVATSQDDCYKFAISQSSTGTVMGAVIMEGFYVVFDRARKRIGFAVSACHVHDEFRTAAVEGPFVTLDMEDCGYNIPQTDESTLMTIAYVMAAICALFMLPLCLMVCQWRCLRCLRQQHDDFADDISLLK
Experiment: Inhibition of human recombinant BACE1 at 0.2 uM
Numbered stars: 1 amine (or outer) side, 2 acyl side, 3 side chain; on linkers, the order of the positions; unused ones are H or OH. Square brackets hold non-standard residues; d marks the D form. Peptide text beside a SMILES is read from it. β3hPhe(2R-OH) = O=C([C@H](O)[C@H](Cc1ccccc1)N[*:1])[*:2]; X1 = O=C([C@H](O)[C@H](CSc1ccccc1)N[*:1])[*:2]
# maps each entry to its inhibition
OBSERVED_PROPERTY: inhibition (%)

{"COMPOUND": "CC(C)C[C@H](NC(=O)[C@@H](NC(=O)[C@@H](N)CCC(=O)O)C(C)C)C(=O)N[C@@H](CSc1ccccc1)[C@@H](O)C(=O)Nc1cccc(C(=O)O)c1", "OBSERVED_PROPERTY": "inhibition", "NUMERIC_READOUT": 57}
{"COMPOUND": "CC(C)C[C@H](NC(=O)[C@@H](NC(=O)[C@@H](N)CCC(=O)O)C(C)C)C(=O)N[C@@H](CSc1ccccc1)[C@@H](O)C(=O)N[C@@H](CC(=O)O)C(=O)N[C@@H](C)C(=O)N[C@@H](CCC(=O)O)C(=O)N[C@@H](Cc1ccccc1)C(=O)O (H-EVL[X1]DAEF-OH)", "OBSERVED_PROPERTY": "inhibition", "NUMERIC_READOUT": 34}
{"COMPOUND": "CC(C)C[C@H](NC(=O)[C@@H](NC(=O)[C@@H](N)CNC(=O)c1cc(N)cc(C(=O)O)c1)C(C)C)C(=O)N[C@@H](Cc1ccccc1)[C@@H](O)C(=O)Nc1cccc(C(=O)O)c1", "OBSERVED_PROPERTY": "inhibition", "NUMERIC_READOUT": 80}
{"COMPOUND": "CC(C)C[C@H](NC(=O)[C@@H](NC(=O)[C@@H](N)CCC(=O)O)C(C)C)C(=O)N[C@@H](Cc1ccccc1)[C@@H](O)C(=O)N[C@@H](CC(=O)O)C(=O)N[C@@H](C)C(=O)N[C@@H](CCC(=O)O)C(=O)N[C@@H](Cc1ccccc1)C(=O)O (H-EVL[β3hPhe(2R-OH)]DAEF-OH)", "OBSERVED_PROPERTY": "inhibition", "NUMERIC_READOUT": 32}
{"COMPOUND": "CC(C)C[C@H](NC(=O)[C@@H](NC(=O)[C@@H](N)CNC(=O)c1cc(N)cc(C(=O)O)c1)C(C)C)C(=O)N[C@@H](CSc1ccccc1)[C@@H](O)C(=O)Nc1cccc(C(=O)O)c1", "OBSERVED_PROPERTY": "inhibition", "NUMERIC_READOUT": 86}
